- ASSAY SUMMARY: Blood and brain concentrations (LC-MS) in mice treated intraperitoneally for a week with graduated doses
- Type: in vivo, CD1 mice
- DETAILS: female, CD1, mouse, brain, right hemisphere (dx), ip; females, 2.5 mg/kg i.p. for a week; normalized to weight of a hemisphere; read-out: Brain concentration, hemisphere dx (converted)
MEASURE: concentration at 1 week

The measured concentration at 1 week associated with CO[C@H]1C[C@@H]2CC[C@@H](C)[C@@](O)(O2)C(=O)C(=O)N2CCCC[C@H]2C(=O)O[C@H]([C@H](C)C[C@@H]2CC[C@@H](OCCO)[C@H](OC)C2)CC(=O)[C@H](C)/C=C(\C)[C@@H](O)[C@@H](OC)C(=O)[C@H](C)C[C@H](C)/C=C/C=C/C=C/1C [everolimus] reads 132 ng/g

Just for reference, patent US20160324770A1 is where these values come from.
